Values compiled from ChEMBL document CHEMBL4414677.

Test system: Escherichia coli
Assay: Antibacterial activity against Escherichia coli ATCC 25922 assessed as bacterial growth inhibition measured after 48 hrs by resazurin assay
Type: functional
Conditions: ATCC 25922, 48 h
I'd be grateful if you could share measured MIC for these entries.

Reported MIC (Escherichia coli) for entry `N#CCCCCC#CC#CC#CCCCCCC#N` is > 400 µM

For `N#CCCCCC#CC#CC#CCCCCCCC#N` on Escherichia coli, measured MIC was > 400 µM

Record `CN(C)[C@@H]1C(O)=C(C(N)=O)C(=O)[C@@]2(O)C(O)=C3C(=O)c4c(O)cccc4[C@@](C)(O)[C@H]3C[C@@H]12` ; system Escherichia coli; MIC = 14 µM

For `N#CCCCCC#CC#CC#CCCCCCC=O` on Escherichia coli, measured MIC was > 400 µM

Fill in: Escherichia coli MIC for N#CCCCCC#CC#CC#CCCCCCC(O)C#N (stereo not given) = > 360 µM

----------
Field: MCC at 96 h. Provide a value for each of the compounds that follow.
Assay: Cytotoxicity against mouse NS1 cells assessed as cell growth inhibition measured after 96 hrs by resazurin assay
Type: cell-based
Conditions: read-out: MIC
# output: bare number, implied unit µM

MCC at 96 h reported for this compound `N#CCCCCC#CC#CC#CCCCCCC=O` : 100

Given item `N#CCCCCC#CC#CC#CCCCCCCC#N` , the value recorded as its MCC at 96 h is 50

Reported MCC at 96 h ( `CSC[S@+]([O-])C[C@H](CO)NC(=O)/C=C/c1c(C)[nH]c(=O)[nH]c1=O` ) = 0.55

Please fill in: MCC at 96 h reported for `N#CCCCCC#CC#CC#CCCCCCC#N` = 50

Notebook: N#CCCCCC#CC#CC#CCCCCCC(O)C#N (stereo not given) , MCC at 96 h read as 180

----------
Tested on: Tritrichomonas foetus
Assay: Antiprotozoal activity against Tritrichomonas foetus KV1 assessed as protozoal growth inhibition measured after 72 hrs under anaerobic conditions
Format: functional
Details: KV1, 72 h
Endpoint Name: MIC (µM)
Report the value in µM with no unit label.

Assay Tritrichomonas foetus, sample `Cc1ncc([N+](=O)[O-])n1CCO` , MIC read: 1.2

// returns MIC for `N#CCCCCC#CC#CC#CCCCCCCC#N` with Tritrichomonas foetus; value = 190

Per the reported Tritrichomonas foetus data, `N#CCCCCC#CC#CC#CCCCCCC#N` has MIC of 200

Record `N#CCCCCC#CC#CC#CCCCCCC=O` has Tritrichomonas foetus MIC equal to 200

----------
Experiment: Cytotoxicity against human NFF cells assessed as cell growth inhibition measured after 96 hrs by resazurin assay
Type: cell-based
Conditions: read-out: MIC
Endpoint Name: MCC at 96 h (µM)
Output spec: scalar in µM, unitless text.

Per the record, N#CCCCCC#CC#CC#CCCCCCC(O)C#N (stereo not given) has MCC at 96 h of 90

Lab note: measured MCC at 96 h of `N#CCCCCC#CC#CC#CCCCCCCC#N` was 100

Per the records, this compound ( `N#CCCCCC#CC#CC#CCCCCCC=O` ) has MCC at 96 h equal to 50

Documented MCC at 96 h of `N#CCCCCC#CC#CC#CCCCCCC#N` : 100

The reported MCC at 96 h of the compound `CSC[S@+]([O-])C[C@H](CO)NC(=O)/C=C/c1c(C)[nH]c(=O)[nH]c1=O` was 1.7
